Ref: patent US20210171503A1

Could you please report measured inhibition at 100 µM for the items listed next?
TGT: mouse glycolate oxidase (mGO) (Mus musculus, UniProt Q9WU19)
Construct: His6 (N); made in house; host or cells: E. coli BL21 (DE3)
Sequence (Q9WU19 whole entry): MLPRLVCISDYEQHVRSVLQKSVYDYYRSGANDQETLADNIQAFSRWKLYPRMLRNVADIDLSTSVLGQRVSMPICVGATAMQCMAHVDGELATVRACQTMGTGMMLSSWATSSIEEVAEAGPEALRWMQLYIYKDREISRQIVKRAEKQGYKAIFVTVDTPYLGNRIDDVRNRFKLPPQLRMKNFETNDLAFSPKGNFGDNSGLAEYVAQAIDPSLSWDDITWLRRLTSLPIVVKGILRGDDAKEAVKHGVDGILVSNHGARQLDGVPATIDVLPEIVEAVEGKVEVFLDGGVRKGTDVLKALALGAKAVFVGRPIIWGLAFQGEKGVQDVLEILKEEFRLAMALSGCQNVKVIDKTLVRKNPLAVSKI
EXPERIMENTAL_PROTOCOL: In vitro inhibition of mouse glycolate oxidase (mGO), HRP-coupled Trinder reaction
Type: biochemical
CONDITION: compound tested at 100 μM; 40 mM glycolic acid as substrate; activity calculated at 1 minute
Counter-ions that a name gives are not always drawn.

Below: 5 molecules and their reported inhibition at 100 µM.
>>> df
                                   molecule                                       tgt   measured
0                 O=C(O)c1nnsc1Cc1ccc(F)cc1  mouse glycolate oxidase (mGO) (Mus musculus, UniProt Q9WU19)      < 30%
1                O=C(O)c1nnsc1Nc1ccc(Br)cc1  mouse glycolate oxidase (mGO) (Mus musculus, UniProt Q9WU19)      > 60%
2                O=C(O)c1nnccc1Cc1ccc(F)cc1  mouse glycolate oxidase (mGO) (Mus musculus, UniProt Q9WU19)  30 to 60%
3  N#Cc1ccc(-c2cccc(Nc3ccnnc3C(=O)O)c2)cc1 [Compound 48, sodium salt]  mouse glycolate oxidase (mGO) (Mus musculus, UniProt Q9WU19)  30 to 60%
4  Cc1onc(C(=O)O)c1NCc1ccc(Oc2ccc(C#N)cc2)cc1  mouse glycolate oxidase (mGO) (Mus musculus, UniProt Q9WU19)  30 to 60%

Quick batch: inhibition at 100 µM for everything below.
1. Cc1[nH]nc(C(=O)O)c1Nc1ccc(Cc2ccc(OCCC3CCN(C(=O)OC(C)(C)C)CC3)cc2)cc1
2. O=C(O)c1nnccc1Nc1ccc(Cc2ccc(OCCC3CCNCC3)cc2)cc1 [Compound 71, hydrochloride]
3. Cc1[nH]nc(C(=O)O)c1Nc1ccc(Cc2ccc(OCCN3CCN(C(=O)OC(C)(C)C)CC3)cc2)cc1
4. COc1ccc(CN(c2ccc(-c3ccc(C#N)cc3)cc2)c2c(C(=O)O)n[nH]c2C)cc1

output:
["> 60%", "30 to 60%", "< 30%", "30 to 60%"]

Quick batch: inhibition at 100 µM for everything below.
1. Cc1onc(C(=O)O)c1Sc1ccc(F)cc1
2. Cc1n[nH]c(C(=O)O)c1NCc1ccc(F)cc1
3. Cc1[nH]nc(C(=O)O)c1Cc1ccc(Oc2ccccc2)cc1
4. Cc1snc(C(=O)O)c1Nc1ccc(-c2ccc(C#N)cc2)cc1

output:
30 to 60%
30 to 60%
30 to 60%
> 60%

###

TGT: mouse glycolate oxidase (mGO) (Mus musculus, UniProt Q9WU19)
Construct: His6 (N); made in house; host or cells: E. coli BL21 (DE3)
EXPERIMENTAL_PROTOCOL: In vitro inhibition of mouse glycolate oxidase (mGO), HRP-coupled Trinder reaction
Format: biochemical
CONDITION: compound tested at 100 μM; 40 mM glycolic acid as substrate; activity calculated at 1 minute
Structures can show the parent of a compound that is named as a salt.
ENDPOINT_LABEL: inhibition at 100 µM

Below: 2 compounds and their reported inhibition at 100 µM.
In [3]: df
Out[3]:
                                   compound  measured
0  Cc1[nH]nc(C(=O)O)c1Nc1ccc(Cc2ccc(OCCOC3CNC3)cc2)cc1 [Compound 60, hydrochloride]     < 30%
1  Cc1[nH]nc(C(=O)O)c1Nc1ccc(CCc2ccc(F)cc2)cc1 [Compound 66]     < 30%

Quick batch: inhibition at 100 µM for everything below.
1. Cc1snc(C(=O)O)c1Nc1ccc(Br)cc1 [Compound 34]
2. Cc1[nH]nc(C(=O)O)c1Cc1ccc(-c2ccc(C#N)cc2)cc1 [Compound 7]
3. CCCCCC(Sc1c(C(=O)O)n[nH]c1C)c1ccc(F)cc1 (centres unmarked) [Compound 79]
4. Cc1[nH]nc(C(=O)O)c1Nc1ccc(Cc2ccc(OCCC3CCNCC3)cc2)cc1 [Compound 62, hydrochloride]
5. Cc1onc(C(=O)O)c1Nc1ccc(Oc2ccc(C#N)cc2)cc1 [Compound 53]
6. O=C(O)c1nnsc1Nc1ccc(F)cc1 [Compound 22]
7. Cc1onc(C(=O)O)c1Nc1ccc(C#N)cc1 [Compound 30]
8. Cc1[nH]nc(C(=O)O)c1Nc1ccc(Cc2ccc(OCCCCN3CCOCC3)cc2)cc1 [Compound 65]

output:
1. 30 to 60%
2. 30 to 60%
3. > 60%
4. < 30%
5. 30 to 60%
6. > 60%
7. < 30%
8. < 0%
